SYSTEM_UNDER_TEST: IRE1α (Homo sapiens, UniProt O75460)
Construct: purchased Signal Chem E31-11G
Sequence (O75460 468-977 limits assumed): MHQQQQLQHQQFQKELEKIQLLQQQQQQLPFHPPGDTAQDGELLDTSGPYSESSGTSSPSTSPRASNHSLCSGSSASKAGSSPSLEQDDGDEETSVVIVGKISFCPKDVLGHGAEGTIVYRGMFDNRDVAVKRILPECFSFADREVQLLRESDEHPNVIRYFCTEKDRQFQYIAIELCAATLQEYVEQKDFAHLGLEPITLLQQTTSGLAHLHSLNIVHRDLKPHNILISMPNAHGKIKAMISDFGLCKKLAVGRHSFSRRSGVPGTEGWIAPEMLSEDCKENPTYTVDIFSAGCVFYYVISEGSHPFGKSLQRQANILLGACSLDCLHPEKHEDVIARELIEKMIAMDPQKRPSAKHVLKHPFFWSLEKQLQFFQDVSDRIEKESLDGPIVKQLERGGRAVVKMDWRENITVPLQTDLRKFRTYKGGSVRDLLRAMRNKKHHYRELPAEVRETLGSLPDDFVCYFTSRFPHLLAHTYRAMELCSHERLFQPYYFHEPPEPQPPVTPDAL
METHOD: Biochemical assay: inhibition of RNase activity of IRE1α
ASSAY_SETUP: enzyme 0.325 nM, substrate 100 nM, 20 minutes
Criterion: IC50 strictly less than 3 nM. Met: t. Not met: f.

{"COMPOUND": "CCn1nc(-c2ccc(NS(=O)(=O)Cc3ccccc3Cl)c(F)c2)c2c(N)ncc(C3=CCC(NC4COC4)CC3)c21 (single isomer, unassigned) [Compound B28]", "GROUP": "t"}
{"COMPOUND": "CCn1nc(-c2cc(F)c(NS(=O)(=O)Cc3ccccc3Cl)cc2F)c2c(N)ncc([C@H]3CC[C@H](NC4COC4)CC3)c21 [Compound A42]", "GROUP": "f"}
{"COMPOUND": "COCCN[C@H]1CC[C@H](c2cnc(N)c3c(-c4cc(F)c(NS(=O)(=O)c5ccccc5Cl)cc4F)nn(C(C)C)c32)CC1 [Compound A19]", "GROUP": "f"}
{"COMPOUND": "CC(C)n1nc(-c2ccc(NS(=O)(=O)Cc3ccccc3F)c(F)c2)c2c(N)ncc(C3=CCC(NC4COC4)CC3)c21 (single isomer, unassigned) [Compound B2]", "GROUP": "t"}
{"COMPOUND": "CC(C)n1nc(-c2cc(F)c(NS(=O)(=O)c3ccccc3Cl)cc2F)c2c(N)ncc(C3=CCC(NC4COC4)CC3)c21 (racemic) [racemic mixture of B10 & B11]", "GROUP": "f"}
{"COMPOUND": "CC(C)n1nc(-c2ccc(NS(=O)(=O)Cc3ccccc3Cl)c(F)c2)c2c(N)ncc([C@H]3CC[C@H](N(C)C)CC3)c21 [Compound A51]", "GROUP": "t"}
